# measured_target: Tissue-type plasminogen activator (Homo sapiens)
# Sequence (P00750 whole entry): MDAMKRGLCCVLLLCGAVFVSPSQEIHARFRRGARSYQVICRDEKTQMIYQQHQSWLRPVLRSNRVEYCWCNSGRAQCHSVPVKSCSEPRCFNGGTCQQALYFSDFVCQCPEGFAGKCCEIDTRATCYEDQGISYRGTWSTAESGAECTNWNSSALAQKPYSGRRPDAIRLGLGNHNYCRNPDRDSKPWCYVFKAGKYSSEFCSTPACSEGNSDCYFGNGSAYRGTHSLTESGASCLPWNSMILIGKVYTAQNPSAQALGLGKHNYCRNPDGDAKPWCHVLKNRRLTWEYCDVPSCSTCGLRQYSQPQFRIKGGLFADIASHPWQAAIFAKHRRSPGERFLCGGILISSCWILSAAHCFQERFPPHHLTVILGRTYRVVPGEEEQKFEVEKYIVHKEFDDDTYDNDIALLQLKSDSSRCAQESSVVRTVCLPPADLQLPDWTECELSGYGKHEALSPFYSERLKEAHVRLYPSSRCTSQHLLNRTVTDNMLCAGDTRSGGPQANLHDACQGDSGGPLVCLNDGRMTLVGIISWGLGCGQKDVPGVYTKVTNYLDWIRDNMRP
Kindly supply the reported log10 Ki values for the records listed here.
Values reflect log10 of reported Ki (nM).

Known log10 Ki results, listed for orientation:
>>> measured_value("N=C(N)c1ccc2nc(-c3cccc(OC4CCCC4)c3O)[nH]c2c1")
2.74
>>> measured_value("N=C(N)c1cc2cc(-c3cc(Cl)cc(Cl)c3O)[nH]c2cc1Cl")
4.51
>>> measured_value("N=C(N)c1ccc(NC(=O)c2ccccc2O)cc1")
4.08
>>> measured_value("N=C(N)c1ccc2[nH]c(-c3cc(Cl)cc(Cl)c3O)cc2c1")
2.54
>>> measured_value("[H]/N=C(/N)c1ccc(NC(=O)c2cc(C)cc(I)c2O)cc1Cl")
5.32

Report log10 Ki for each item below.
1. Cc1cc(I)c(O)c(C(=O)Nc2ccc(C(=N)N)c(F)c2)c1
2. Cc1cc(Br)c(O)c(C(=O)Nc2ccc(C(=N)N)cc2)c1
3. Cc1cc(I)c(O)c(C(=O)Nc2ccc(C(=N)N)cc2)c1

Reply |
[3.15, 2.46, 2.28]

---

# measured_target: Urokinase-type plasminogen activator (Homo sapiens, UniProt P00749)
# experiment: Enzyme Assay and Determination of the Inhibition Constants
# measurement_context: pH 8.2; 22 °C
property_name: Ki (nM)
One number for each entry, in nM.

>>> measured_value("CC(C)COc1cccc(-c2nc3cc(Cl)c(C(=N)N)cc3[nH]2)c1O")
490
>>> measured_value("CC(C)COc1cccc(-c2nc3cc(F)c(C(=N)N)cc3[nH]2)c1O")
160
>>> measured_value("CC(C)COc1cccc(-c2nc3ccc(C(=N)N)cc3[nH]2)c1O")
180
>>> measured_value("N=C(N)c1cc2nc(-c3cccc(-c4ccccc4)c3O)[nH]c2cc1F")
250
>>> measured_value("C[C@H]1CCCC[C@@H]1Oc1cccc(-c2cc3cc(C(=N)N)c(F)cc3[nH]2)c1O")
25

Next, consider the following molecule.
The value of Ki measured for the molecule `N=C(N)c1cc2[nH]c(-c3cccc(-c4ccccc4)c3O)nc2cc1Cl` turned out to be 850
